- Assay target: MMP-1 (Fibroblast collagenase) (Homo sapiens, UniProt P03956)
- Sequence (P03956 100-469, species assumed): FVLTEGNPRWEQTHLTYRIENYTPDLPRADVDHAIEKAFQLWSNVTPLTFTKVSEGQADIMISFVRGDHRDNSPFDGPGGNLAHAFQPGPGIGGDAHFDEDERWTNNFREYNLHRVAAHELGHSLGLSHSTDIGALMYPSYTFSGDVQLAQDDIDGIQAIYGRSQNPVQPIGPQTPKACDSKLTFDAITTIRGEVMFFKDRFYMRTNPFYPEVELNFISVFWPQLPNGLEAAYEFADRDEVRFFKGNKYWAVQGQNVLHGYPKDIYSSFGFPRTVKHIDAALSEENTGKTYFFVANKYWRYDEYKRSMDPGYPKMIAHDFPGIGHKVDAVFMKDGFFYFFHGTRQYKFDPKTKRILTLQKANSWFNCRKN
- Experimental details: In vitro metalloprotease inhibition, MMP-1
- Assay type: biochemical
As shown below, each of these compounds has a reported IC50 value.
Readout label: IC50

Smiles text: CCOC(=O)N1CCN(S(=O)(=O)c2cc(F)c(Oc3ccc(F)cc3)c(F)c2)[C@@H](C(=O)NO)C1
Observed: 1 to 20 µM

Smiles text: O=C(NO)[C@H]1CN(C(=O)OCCN2CCCC2)CCN1S(=O)(=O)c1cc(F)c(Oc2ccc(Cl)cc2)c(F)c1
Observed: > 20 µM

Smiles text: CN(C)c1cccc2c(S(=O)(=O)N3CCN(S(=O)(=O)c4cc(F)c(Oc5ccc(Cl)cc5)c(F)c4)[C@@H](C(=O)NO)C3)cccc12
Observed: > 20 µM

----------
- Assay target: MMP-8 (Neutrophil collagenase) (Homo sapiens, UniProt P22894)
- Sequence (P22894 101-467, species assumed): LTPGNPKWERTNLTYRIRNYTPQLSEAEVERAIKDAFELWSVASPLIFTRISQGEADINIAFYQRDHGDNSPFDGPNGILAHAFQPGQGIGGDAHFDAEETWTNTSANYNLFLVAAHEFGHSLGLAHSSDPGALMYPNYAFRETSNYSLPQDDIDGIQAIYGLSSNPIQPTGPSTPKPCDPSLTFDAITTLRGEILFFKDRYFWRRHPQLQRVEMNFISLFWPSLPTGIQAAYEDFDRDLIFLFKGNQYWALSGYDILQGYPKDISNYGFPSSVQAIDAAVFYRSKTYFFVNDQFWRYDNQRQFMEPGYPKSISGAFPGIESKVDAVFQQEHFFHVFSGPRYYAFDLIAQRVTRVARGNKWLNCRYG
- Experimental details: In vitro metalloprotease inhibition, MMP-8
Readout label: IC50

Compound: O=C(NO)[C@H]1CN(C(=O)N2CCOCC2)CCN1S(=O)(=O)c1cc(F)c(Oc2ccc(Cl)cc2)c(F)c1 [Entry 30]
Readout label: IC50
Observed: < 50 nM

----------
- Assay target: MMP-13 (collagenase-3) (Homo sapiens)
Readout label: IC50

Smiles text: O=C(NO)[C@H]1CNCCN1S(=O)(=O)c1cc(F)c(Oc2ccc(F)cc2)c(F)c1
Observed: > 20000 nM

Smiles text: O=C(NO)[C@H]1CN(C(=O)C(=O)N2CCOCC2)CCN1S(=O)(=O)c1cc(F)c(Oc2ccc(Cl)cc2)c(F)c1
Observed: < 50 nM

Smiles text: CN(C)c1ccc2ccc(S(=O)(=O)N3CCN(S(=O)(=O)c4cc(F)c(Oc5ccc(Cl)cc5)c(F)c4)[C@@H](C(=O)NO)C3)cc2c1
Observed: < 50 nM

Smiles text: O=C(NO)[C@H]1CN(CC(=O)N2CCCC2)CCN1S(=O)(=O)c1cc(F)c(Oc2ccc(Cl)cc2)c(F)c1
Observed: 50 to 1000 nM

Smiles text: O=C(NO)[C@H]1CN(C(=O)c2cccnc2)CCN1S(=O)(=O)c1cc(F)c(Oc2ccc(Cl)cc2)c(F)c1
Observed: < 50 nM

Smiles text: O=C(NO)[C@H]1CN(C(=O)Cc2ccncc2)CCN1S(=O)(=O)c1cc(F)c(Oc2ccc(Cl)cc2)c(F)c1
Observed: < 50 nM

Smiles text: COCCOC(=O)N1CCN(S(=O)(=O)c2cc(F)c(Oc3ccc(F)cc3)c(F)c2)[C@@H](C(=O)NO)C1
Observed: < 50 nM

----------
pIC50: −log10 of the molar value.
Record set of pIC50 for target or system MMP-1 (Fibroblast collagenase) (Homo sapiens, UniProt P03956).

Smiles text: CN1CCC(OC(=O)N2CCN(S(=O)(=O)c3cc(F)c(Oc4ccc(Cl)cc4)c(F)c3)[C@@H](C(=O)NO)C2)CC1
Assay target: MMP-1 (Fibroblast collagenase) (Homo sapiens, UniProt P03956)
pIC50: 4.70 to 6.00
--
Smiles text: O=C(NO)[C@H]1CN(S(=O)(=O)c2cccnc2O)CCN1S(=O)(=O)c1cc(F)c(Oc2ccc(Cl)cc2)c(F)c1
Assay target: MMP-1 (Fibroblast collagenase) (Homo sapiens, UniProt P03956)
pIC50: 4.70 to 6.00
--
Smiles text: O=C(NO)[C@H]1CN(C(=O)Cc2cccnc2)CCN1S(=O)(=O)c1cc(F)c(Oc2ccc(Cl)cc2)c(F)c1
Assay target: MMP-1 (Fibroblast collagenase) (Homo sapiens, UniProt P03956)
pIC50: < 4.70
--
Smiles text: O=C(NO)[C@H]1CN(C(=O)N2CCOCC2)CCN1S(=O)(=O)c1ccc(-c2cccc(F)c2)nc1
Assay target: MMP-1 (Fibroblast collagenase) (Homo sapiens, UniProt P03956)
pIC50: 6.00 to 7.30
--
Smiles text: CCOC(=O)N1CCN(CCS(=O)(=O)N2CCN(S(=O)(=O)c3cc(F)c(Oc4ccc(Cl)cc4)c(F)c3)[C@@H](C(=O)NO)C2)CC1
Assay target: MMP-1 (Fibroblast collagenase) (Homo sapiens, UniProt P03956)
pIC50: 4.70 to 6.00
--
Smiles text: O=C(NO)[C@H]1CN(C(=O)OCc2ccccc2)CCN1S(=O)(=O)c1cc(F)c(Oc2ccc(Cl)cc2)c(F)c1
Assay target: MMP-1 (Fibroblast collagenase) (Homo sapiens, UniProt P03956)
pIC50: 4.70 to 6.00
--
Smiles text: O=C(CN1CCOCC1)NC(=O)N1CCN(S(=O)(=O)c2cc(F)c(Oc3ccc(Cl)cc3)c(F)c2)[C@@H](C(=O)NO)C1
Assay target: MMP-1 (Fibroblast collagenase) (Homo sapiens, UniProt P03956)
pIC50: 4.70 to 6.00
--
Smiles text: O=C(NO)[C@H]1CN(S(=O)(=O)c2cccc3cnccc23)CCN1S(=O)(=O)c1cc(F)c(Oc2ccc(Cl)cc2)c(F)c1
Assay target: MMP-1 (Fibroblast collagenase) (Homo sapiens, UniProt P03956)
pIC50: < 4.70
--
Smiles text: COCCOC(=O)N1CCN(S(=O)(=O)c2ccc(Oc3ccc(Cl)cc3)c(F)c2)[C@@H](C(=O)NO)C1
Assay target: MMP-1 (Fibroblast collagenase) (Homo sapiens, UniProt P03956)
pIC50: 6.00 to 7.30
--
Smiles text: C=CCN1CCN(S(=O)(=O)c2cc(F)c(Oc3ccc(Cl)cc3)c(F)c2)[C@@H](C(=O)NO)C1
Assay target: MMP-1 (Fibroblast collagenase) (Homo sapiens, UniProt P03956)
pIC50: < 4.70
--
Smiles text: O=C(NO)[C@H]1CN(C(=O)CN2CCOCC2)CCN1S(=O)(=O)c1cc(F)c(Oc2ccc(Cl)cc2)c(F)c1
Assay target: MMP-1 (Fibroblast collagenase) (Homo sapiens, UniProt P03956)
pIC50: < 4.70
--
Smiles text: COCCN1CCN(S(=O)(=O)c2cc(F)c(Oc3ccc(Cl)cc3)c(F)c2)[C@@H](C(=O)NO)C1
Assay target: MMP-1 (Fibroblast collagenase) (Homo sapiens, UniProt P03956)
pIC50: 4.70 to 6.00
--
Smiles text: O=C(NO)[C@H]1CN(C(=O)NCCN2CCCC2)CCN1S(=O)(=O)c1cc(F)c(Oc2ccc(Cl)cc2)c(F)c1
Assay target: MMP-1 (Fibroblast collagenase) (Homo sapiens, UniProt P03956)
pIC50: 4.70 to 6.00
--
Smiles text: CN(C)S(=O)(=O)N1CCN(S(=O)(=O)c2cc(F)c(Oc3ccc(Cl)cc3)c(F)c2)[C@@H](C(=O)NO)C1
Assay target: MMP-1 (Fibroblast collagenase) (Homo sapiens, UniProt P03956)
pIC50: 4.70 to 6.00

----------
Record set of IC50 for target or system MMP-1 (Fibroblast collagenase) (Homo sapiens).

Compound: O=C(NO)[C@H]1CN(C(=O)Cc2ccncc2)CCN1S(=O)(=O)c1cc(F)c(Oc2ccc(Cl)cc2)c(F)c1 [Entry 52]
IC50: 1000 to 20000 nM

Compound: CN1CCN(C(=O)NS(=O)(=O)N2CCN(S(=O)(=O)c3cc(F)c(Oc4ccc(Cl)cc4)c(F)c3)[C@@H](C(=O)NO)C2)CC1 [Entry 39]
IC50: 50 to 1000 nM

Compound: O=C(NO)[C@H]1CN(S(=O)(=O)Cc2cc(Cl)cc(Cl)c2)CCN1S(=O)(=O)c1cc(F)c(Oc2ccc(Cl)cc2)c(F)c1 [Entry 61]
IC50: > 20000 nM

----------
Record set of pIC50 for target or system UniProt P45452.
pIC50: −log10 of the molar value.
Readout label: pIC50

Smiles text: CN1CCN(C(=O)NS(=O)(=O)N2CCN(S(=O)(=O)c3cc(F)c(Oc4ccc(Cl)cc4)c(F)c3)[C@@H](C(=O)NO)C2)CC1
Observed: > 7.30
//
Smiles text: CN(C)CCS(=O)(=O)N1CCN(S(=O)(=O)c2cc(F)c(Oc3ccc(Cl)cc3)c(F)c2)[C@@H](C(=O)NO)C1
Observed: > 7.30
//
Smiles text: CCCC(CCC)C(=O)N1CCN(S(=O)(=O)c2cc(F)c(Oc3ccc(Cl)cc3)c(F)c2)[C@@H](C(=O)NO)C1
Observed: 6.00 to 7.30
//
Smiles text: CN1CCC(OC(=O)N2CCN(S(=O)(=O)c3cc(F)c(Oc4ccc(Cl)cc4)c(F)c3)[C@@H](C(=O)NO)C2)CC1
Observed: > 7.30
//
Smiles text: COCCOC(=O)N1CCN(S(=O)(=O)c2ccc(Oc3ccc(C#N)cc3)c(F)c2)[C@@H](C(=O)NO)C1
Observed: > 7.30
//
Smiles text: COCCOC(=O)N1CCN(S(=O)(=O)c2ccc(Oc3ccc(F)cc3)c(F)c2)[C@@H](C(=O)NO)C1
Observed: > 7.30
//
Smiles text: O=C(NO)[C@H]1CN(C(=O)Cc2cccnc2)CCN1S(=O)(=O)c1cc(F)c(Oc2ccc(Cl)cc2)c(F)c1
Observed: > 7.30
